Value source: patent US20050033050A1

- experiment notes: logP by HPLC (EEC directive 79/831 Annex V.A8, gradient method)
- Assay type: physicochemical
- conditions used: gradient method, acetonitrile/0.1% aqueous phosphoric acid, compounds of formula (I), Table 1
Doc: threshold 5 (exclusive). Items with log P* beneath it return condition met; others return condition not met.

Please review the entries below; each comes with its answer.
compound	qualitative label
CCCCOc1nn(CCCC)c(=O)c2cc(Cl)c(Cl)cc12	condition not met
CCC(C)Oc1nn(C(C)CC)c(=O)c2cc(Cl)c(Cl)cc12 (centres unmarked)	condition met
CCCOc1nn(CCC)c(=O)c2cc(Cl)c(Cl)cc12	condition not met
CCC(C)Oc1nn(C(C)CC)c(=O)c2cc(Br)ccc12 (centres unmarked)	condition not met
CCCOc1nn(CCC)c(=O)c2ccc(Br)cc12	condition met
CCCOc1cc2c(OCCC)nn(CCC)c(=O)c2cc1F	condition met
CCCOc1cc2c(=O)n(CCC)nc(OCCC)c2cc1F	condition not met

Then this compound:
A record lists "CC(C)COc1nn(CC(C)C)c(=O)c2cc(Cl)c(Cl)cc12" . Is its log P* below 5? condition not met
